target under test: MSI1 full-length (mouse, UniProt Q61474 1-362)
Sequence (Q61474 whole entry): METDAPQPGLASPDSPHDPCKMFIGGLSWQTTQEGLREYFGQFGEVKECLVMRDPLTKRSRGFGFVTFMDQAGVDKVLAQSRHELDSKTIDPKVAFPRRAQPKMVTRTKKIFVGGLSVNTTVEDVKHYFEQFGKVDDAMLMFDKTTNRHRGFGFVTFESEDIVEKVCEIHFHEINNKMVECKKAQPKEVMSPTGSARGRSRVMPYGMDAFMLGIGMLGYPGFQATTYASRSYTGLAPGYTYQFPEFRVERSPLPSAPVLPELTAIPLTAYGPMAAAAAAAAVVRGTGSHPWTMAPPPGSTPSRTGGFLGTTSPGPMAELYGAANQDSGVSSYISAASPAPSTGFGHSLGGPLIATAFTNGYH
assay info: nsRBNS (natural sequence RNA bind-n-seq); RBNS binding buffer (assumed for nsRBNS): 25 mM Tris pH 7.5, 150 mM KCl, 3 mM MgCl2, 0.01% Triton X-100, 500 ug/ml BSA, 20 U/ml SUPERase-In, 4 C; UNK is unkempt and MSI1 is Musashi-1; names of the RNAs are library labels; protein concentration not given here; high values mean tight binding
Whole data set: some 5,800 sequences, median “enrichment r” near 0.54, cut for the highest 2% near 16. What follows is part of a selection rich in the highest values, with near analogues and random picks from the rest.
The label Yes is reserved for binding signal strictly under 9 enrichment R; No covers values equal to or above it.

Example entries begin here.
binder="chr4:185586528:185586629:-|3pUTR|ENSG00000154556|msi1|FALSE|unique (ssRNA) RNA: GGGAGUUCUACAGUCCGACGAUCAUCCAUAUGAUAUGUUGUACAUUUUAUGGAAAUGUAAUAGAAUCUCACACAUUAUUUUAUAGAAAUAGAGUACAGAAGCAUCACAAGUAUUAAAGUUGGUUUUAGCAAGGAUUAGGAUUACAACAGAGGAUUGAGCAUCA" classification=No
binder="ENSG00000113300:stop:overlap|stop_codon|ENSG00000113300|stop_codon|NA|stop_codon (ssRNA) RNA: GGGAGUUCUACAGUCCGACGAUCUGGAGCUCUUACUGCCUUUCCUGCCCCAAGUCAACGGCAUCCACCUUCCUGGCAGGAGGUAGUCAAGCACCUUCAGAGGACAGCCUUGAUUCACUUGUAAACUUGUGAAAAUCUGAACAUCAACAGAGGAUUGAGCAUCA" classification=No
binder="ENSG00000198589:be:win_3651|CDS|ENSG00000198589|bound_else_gene|NA|bound_elsewhere_windowed (ssRNA) RNA: GGGAGUUCUACAGUCCGACGAUCCCUCACUAGAGAAACCAAAUUAAUUAAUGAUUGUCAUGGUAGUGUCUCUGAGGCUUCUUCUGAGCAAAAGAUUGCGAAGUUGGAUGUUUCCAAUGUUGCUACAGAUACUGAGAGGCUGGACAACAGAGGAUUGAGCAUCA" classification=Yes
binder="chrX:131089436:131089558:+|3pUTR|ENSG00000147256|unk|FALSE|unique (ssRNA) RNA: GGGAGUUCUACAGUCCGACGAUCGGGAAACCUCAAGUGUAGGUCUAAUUAGUGUUUCUGGGAUCCAAAGUUAGAGGAAAAUUUAGAUUUUAUUGCCUGGAUCUGCUUUAAAGACAAUUGGUGUUUACACCCUCUUGUCAGCAACAACAGAGGAUUGAGCAUCA" classification=No
binder="chr15:77046258:77046342:-|3pUTR|ENSG00000140391|msi1_unk|FALSE|overlapping (ssRNA) RNA: GGGAGUUCUACAGUCCGACGAUCAAAAAUAUUUACUGUAGUCCAAUAAGAUAGCAGCUGUACAAAAUGACUAAAAUAGAUUGUAGGAUCAUAUGGCGUAUAUCUUGGUUCAUCUUCAAAAUCAGAGACUGAGCUUUGAAACUACAACAGAGGAUUGAGCAUCA" classification=No

Ask | hey, is binding signal for chr20:53567570:53567671:-|3pUTR|ENSG00000171940|unk|FALSE|unique (ssRNA) RNA: GGGAGUUCUACAGUCCGACGAUCUCACAAGCUGAGCCAUAUGUACAUAAUCUAGAUUUUGUUUUCAUAGUUUUGCACUUUUAUAGCCUAUUUUUGAAGAUUAACACAUUUGCAAGAUGAUUGACUCAAUCUUUGCCUAAUCCACAACAGAGGAUUGAGCAUCA lower than 9 enrichment R or not?
Reply | Yes

Ask | # TODO verify binding signal < 9 enrichment R strictly for this binder: chr2:1633339:1633490:-|3pUTR|ENSG00000130508|msi1|total|mutant (ssRNA) RNA: GGGAGUUCUACAGUCCGACGAUCUUCAUAAGCCACAUUCCGAAACAGGUUUGCUUUCAGCUGUCACUUGCACACAUACUGCCCCGUUGUGAACCAAAUGUGAAAAAACCUCCUUCAUCCCAUUGUGUAUCUGAUACCUGCCGACAACAGAGGAUUGAGCAUCA
Reply | Yes
